B1: tRNA (parent)
chain: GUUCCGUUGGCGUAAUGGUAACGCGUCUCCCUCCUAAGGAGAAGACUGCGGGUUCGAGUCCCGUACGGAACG

Variants of: B1
Assay Method Text: yeast fitness relative to wild type (ratio to wild type); higher = fitter; tRNA-Arg(CCU), competitive growth, 37 C, YPD
Variants at the floor of the assay were thinned out.
Parameter: yeast fitness
Just the number.

# Mutant Name, yeast fitness
rows = [
    ("U7C G23C G52A", 0.591),
]

Input line: Need yeast fitness, item C49A G56C G68C
Output line: 0.574

Input line: Need yeast fitness, item C30U C46A C66U
Output line: 0.83
